Data provenance: ChEMBL document CHEMBL3232837

Target: Heat shock protein HSP 90-alpha (Homo sapiens, UniProt P07900)
Experiment: Displacement of GM-FITC from full-length recombinant human Hsp90-alpha after 4 hrs by fluorescence polarization assay
So I've got a bunch of molecules here, and I need their pIC50 values.
Answers are plain numbers, as −log10 of the molar value.

CC(C)c1cc(-n2nncc2-c2ccc(CN3CCCC(O)C3)cc2)c(O)cc1O (centres undefined) :: 7.43
CC(C)c1cc(-n2nnc(C(=O)NC3CCCC3)c2-c2ccc(CN3CCOCC3)cc2)c(O)cc1O :: 7.57
CCNC(=O)c1nnn(-c2cc(C(C)C)c(O)cc2O)c1-c1ccc(CNCCCN(CC)CC)cc1 :: 7.92
CC(C)c1cc(-n2nnc(C(=O)NCCCCCCC(=O)NO)c2-c2ccc(CN3CCOCC3)cc2)c(O)cc1O :: 7.51
CC(C)c1cc(-n2cc(-c3ccc(CN4CCN(c5ccccc5)CC4)cc3)nn2)c(O)cc1O :: 6.49

For every item below, please supply its pIC50.
1. CC(C)c1cc(-n2nnc(C(=O)NC3CCCCC3)c2-c2ccc(CN3CCOCC3)cc2)c(O)cc1O
2. CCCCCCCNC(=O)c1nnn(-c2cc(C(C)C)c(O)cc2O)c1-c1ccc(CN2CCOCC2)cc1
3. CCNC(=O)c1nnn(-c2cc(C(C)C)c(O)cc2O)c1-c1ccc(CN2CCCCC2)cc1
4. CCNC(=O)c1nnn(-c2cc(C(C)C)c(O)cc2O)c1-c1ccc(CN(CC)CC)cc1
5. CCNC(=O)c1nnn(-c2cc(C(C)C)c(O)cc2O)c1-c1ccc(Cn2ccnc2)cc1

Response line:
1: 7.02; 2: 7.48; 3: 7.68; 4: 7.60; 5: 7.64

###

Biological target: Heat shock protein HSP 90-alpha (Homo sapiens)
Experiment: Displacement of GM-FITC from full-length recombinant human Hsp90-alpha after 4 hrs by fluorescence polarization assay
readout-name: IC50 (nM)
One number for each entry, in nM.

Below, each entry is followed by its recorded IC50 result.
CC(C)c1cc(-n2cc(-c3ccc(CN4CCN(Cc5ccccc5)CC4)cc3)nn2)c(O)cc1O :: 295
CCNC(=O)c1nnn(-c2cc(C(C)C)c(O)cc2O)c1-c1ccc(CN2CC[C@H](N(C)C)C2)cc1 :: 13

Read the next record carefully.
So, CCNC(=O)c1nnn(-c2cc(C(C)C)c(O)cc2O)c1-c1ccc(CN2CCCC(O)C2)cc1 (stereo not drawn) ? Its IC50 was 23

###

Experiment: Metabolic stability in human plasma assessed as compound remaining at 5 uM measured at 120 mins by LC/MS analysis
Type: ADME, cell-free
readout-name: remaining at 2 h, 5 µM (%)
Give bare numbers, in %.

CCNC(=O)c1noc(-c2cc(C(C)C)c(O)cc2O)c1-c1ccc(CN2CCOCC2)cc1 :: 56

Read the next record carefully.
So, CCNC(=O)c1nnn(-c2cc(C(C)C)c(O)cc2O)c1-c1ccc(CN2CCOCC2)cc1 ? Its remaining at 2 h, 5 µM was 65

###

Target: Histone deacetylase 5 (Homo sapiens)
readout-name: IC50
Give the figure together with its unit, number first.

So, CC(C)c1cc(-n2nnc(C(=O)NCCCCCCC(=O)NO)c2-c2ccc(CN3CCOCC3)cc2)c(O)cc1O ? Its IC50 was 1910 nM

###

Molecular target: Heat shock protein HSP 90-alpha (Homo sapiens, UniProt P07900)
Test: Displacement of GM-FITC from full-length recombinant human Hsp90-alpha after 4 hrs by fluorescence polarization assay
readout-name: IC50 (µM)
Give bare numbers, in µM.

Below, each entry is followed by its recorded IC50 result.
CCNC(=O)c1nnn(-c2cc(C(C)C)c(O)cc2O)c1-c1ccc(CNCCN2CCOCC2)cc1 :: 0.0148
CC(C)c1cc(-n2nnc(C(=O)N3CCOCC3)c2-c2ccc(CN3CCOCC3)cc2)c(O)cc1O :: 0.27
CCNC(=O)c1nnn(-c2cc(C(C)C)c(O)cc2O)c1-c1ccc(CN2CCC[C@@H](O)C2)cc1 :: 0.03
CCNC(=O)c1nnn(-c2cc(C(C)C)c(O)cc2O)c1-c1ccc(CNCCN(CC)CC)cc1 :: 0.015

Read the next record carefully.
So, CCNC(=O)c1nnn(-c2cc(C(C)C)c(O)cc2O)c1-c1ccc(CN2CCC[C@H](O)C2)cc1 ? Its IC50 was 0.023

###

Target: UniProt:Q96DB2
Sequence (Q96DB2 whole entry): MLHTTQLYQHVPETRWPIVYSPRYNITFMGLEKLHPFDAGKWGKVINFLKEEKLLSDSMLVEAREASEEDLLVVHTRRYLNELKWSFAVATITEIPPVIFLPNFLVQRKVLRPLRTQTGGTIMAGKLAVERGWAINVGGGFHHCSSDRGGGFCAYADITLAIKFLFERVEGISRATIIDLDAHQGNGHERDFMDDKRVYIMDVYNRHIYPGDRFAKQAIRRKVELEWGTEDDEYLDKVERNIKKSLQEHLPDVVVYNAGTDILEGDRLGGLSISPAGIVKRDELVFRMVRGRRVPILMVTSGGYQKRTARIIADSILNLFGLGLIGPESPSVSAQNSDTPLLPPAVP
readout-name: IC50 (nM)
Answers are plain numbers, in nM.

So, CC(C)c1cc(-n2nnc(C(=O)NCCCCCCC(=O)NO)c2-c2ccc(CN3CCOCC3)cc2)c(O)cc1O ? Its IC50 was 1770

###

Biological target: Heat shock protein HSP 90-beta (Homo sapiens) (UniProt P08238)
Sequence (P08238 whole entry): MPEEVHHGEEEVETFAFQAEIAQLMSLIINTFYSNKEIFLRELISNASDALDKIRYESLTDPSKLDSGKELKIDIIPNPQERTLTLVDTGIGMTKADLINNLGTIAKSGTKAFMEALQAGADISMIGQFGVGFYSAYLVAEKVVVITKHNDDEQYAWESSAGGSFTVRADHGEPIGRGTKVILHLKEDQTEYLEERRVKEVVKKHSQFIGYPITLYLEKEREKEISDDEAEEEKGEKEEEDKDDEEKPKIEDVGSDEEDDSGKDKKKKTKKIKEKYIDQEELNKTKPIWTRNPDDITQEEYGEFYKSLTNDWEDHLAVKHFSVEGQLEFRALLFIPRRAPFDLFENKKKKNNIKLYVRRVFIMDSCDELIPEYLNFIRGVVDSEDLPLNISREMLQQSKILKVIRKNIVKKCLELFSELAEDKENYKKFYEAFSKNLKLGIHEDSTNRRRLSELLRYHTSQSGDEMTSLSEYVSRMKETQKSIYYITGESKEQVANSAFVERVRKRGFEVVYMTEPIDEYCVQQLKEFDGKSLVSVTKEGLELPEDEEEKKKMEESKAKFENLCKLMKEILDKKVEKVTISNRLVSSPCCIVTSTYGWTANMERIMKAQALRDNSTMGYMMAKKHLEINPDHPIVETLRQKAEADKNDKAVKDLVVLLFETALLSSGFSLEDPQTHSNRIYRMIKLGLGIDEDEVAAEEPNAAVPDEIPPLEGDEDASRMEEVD
Experiment: Inhibition of HSP90 in human A431 cells overexpressing EGFR assessed as downregulation of CDK4 protein expression after 24 hrs by Western blot analysis
Type: cell-based
Settings: A-431
readout-name: inhibition

CCNC(=O)c1nnn(-c2cc(C(C)C)c(O)cc2O)c1-c1ccc(CNCC2CCCCC2)cc1 :: Dose-dependent effect
CCNC(=O)c1nnn(-c2cc(C(C)C)c(OC(C)=O)cc2OC(C)=O)c1-c1ccc(CN2CCOCC2)cc1 :: Dose-dependent effect
CCNC(=O)c1nnn(-c2cc(C(C)C)c(O)cc2O)c1-c1ccc(CN(CC)CC)cc1 :: Dose-dependent effect

###

Target: Protein deacetylase HDAC6 (Homo sapiens)
readout-name: IC50 (nM)
One number for each entry, in nM.

Considering CC(C)c1cc(-n2nnc(C(=O)NCCCCCCC(=O)NO)c2-c2ccc(CN3CCOCC3)cc2)c(O)cc1O , its IC50 with Protein deacetylase HDAC6 (Homo sapiens) was recorded as 12

###

Test: Toxicity in ip dosed CD-1 nude mouse xenografted with GTL16 cells overexpressing c-Met administered as q5d/week for 2 weeks starting 3 days after tumor injection measured on day 5 post last dose
Assay type: organism-based
Settings: in vivo
readout-name: MTD at 2 weeks

So, CCNC(=O)c1noc(-c2cc(C(C)C)c(O)cc2O)c1-c1ccc(CN2CCOCC2)cc1 [LUMINESPIB] ? Its MTD at 2 weeks was 50 mg/kg

###

Target: Polyamine deacetylase HDAC10 (Homo sapiens)
Sequence (Q969S8 whole entry): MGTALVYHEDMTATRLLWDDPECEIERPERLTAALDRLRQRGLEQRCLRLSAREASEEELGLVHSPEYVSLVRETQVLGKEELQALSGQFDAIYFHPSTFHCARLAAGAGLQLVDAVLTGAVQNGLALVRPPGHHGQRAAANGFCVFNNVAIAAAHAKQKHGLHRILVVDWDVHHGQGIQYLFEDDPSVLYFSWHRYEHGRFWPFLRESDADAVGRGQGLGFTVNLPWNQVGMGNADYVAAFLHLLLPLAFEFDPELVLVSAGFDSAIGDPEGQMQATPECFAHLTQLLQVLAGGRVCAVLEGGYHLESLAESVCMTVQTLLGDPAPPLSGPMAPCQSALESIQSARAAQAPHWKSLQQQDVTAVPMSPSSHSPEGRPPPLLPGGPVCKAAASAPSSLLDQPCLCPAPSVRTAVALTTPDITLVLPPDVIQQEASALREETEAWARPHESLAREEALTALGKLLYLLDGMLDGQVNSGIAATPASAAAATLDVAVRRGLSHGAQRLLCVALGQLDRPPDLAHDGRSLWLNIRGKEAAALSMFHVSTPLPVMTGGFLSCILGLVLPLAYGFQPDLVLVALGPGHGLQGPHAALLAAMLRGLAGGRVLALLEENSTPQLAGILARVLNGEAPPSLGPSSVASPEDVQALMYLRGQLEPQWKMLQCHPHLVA
readout-name: IC50 (µM)
Answers are plain numbers, in µM.

So, CC(C)c1cc(-n2nnc(C(=O)NCCCCCCC(=O)NO)c2-c2ccc(CN3CCOCC3)cc2)c(O)cc1O ? Its IC50 was 3.22

###

Molecular target: Histone deacetylase 3/Nuclear receptor corepressor 2 (HDAC3/NCoR2) (Homo sapiens, UniProt O15379)
Sequence (O15379 whole entry): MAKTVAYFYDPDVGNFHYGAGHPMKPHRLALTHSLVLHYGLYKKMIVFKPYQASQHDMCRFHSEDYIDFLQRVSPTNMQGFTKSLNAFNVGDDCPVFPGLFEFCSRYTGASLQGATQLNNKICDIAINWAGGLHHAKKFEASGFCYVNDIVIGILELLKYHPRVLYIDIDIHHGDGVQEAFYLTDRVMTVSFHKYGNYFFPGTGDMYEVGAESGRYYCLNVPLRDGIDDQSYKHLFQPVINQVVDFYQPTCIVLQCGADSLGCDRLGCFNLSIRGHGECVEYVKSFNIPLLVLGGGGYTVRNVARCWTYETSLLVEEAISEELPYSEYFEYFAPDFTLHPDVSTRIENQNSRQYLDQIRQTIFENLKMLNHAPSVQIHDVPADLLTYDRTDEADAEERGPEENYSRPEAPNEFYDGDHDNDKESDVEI
Sequence (Q9Y618 whole entry, further chain): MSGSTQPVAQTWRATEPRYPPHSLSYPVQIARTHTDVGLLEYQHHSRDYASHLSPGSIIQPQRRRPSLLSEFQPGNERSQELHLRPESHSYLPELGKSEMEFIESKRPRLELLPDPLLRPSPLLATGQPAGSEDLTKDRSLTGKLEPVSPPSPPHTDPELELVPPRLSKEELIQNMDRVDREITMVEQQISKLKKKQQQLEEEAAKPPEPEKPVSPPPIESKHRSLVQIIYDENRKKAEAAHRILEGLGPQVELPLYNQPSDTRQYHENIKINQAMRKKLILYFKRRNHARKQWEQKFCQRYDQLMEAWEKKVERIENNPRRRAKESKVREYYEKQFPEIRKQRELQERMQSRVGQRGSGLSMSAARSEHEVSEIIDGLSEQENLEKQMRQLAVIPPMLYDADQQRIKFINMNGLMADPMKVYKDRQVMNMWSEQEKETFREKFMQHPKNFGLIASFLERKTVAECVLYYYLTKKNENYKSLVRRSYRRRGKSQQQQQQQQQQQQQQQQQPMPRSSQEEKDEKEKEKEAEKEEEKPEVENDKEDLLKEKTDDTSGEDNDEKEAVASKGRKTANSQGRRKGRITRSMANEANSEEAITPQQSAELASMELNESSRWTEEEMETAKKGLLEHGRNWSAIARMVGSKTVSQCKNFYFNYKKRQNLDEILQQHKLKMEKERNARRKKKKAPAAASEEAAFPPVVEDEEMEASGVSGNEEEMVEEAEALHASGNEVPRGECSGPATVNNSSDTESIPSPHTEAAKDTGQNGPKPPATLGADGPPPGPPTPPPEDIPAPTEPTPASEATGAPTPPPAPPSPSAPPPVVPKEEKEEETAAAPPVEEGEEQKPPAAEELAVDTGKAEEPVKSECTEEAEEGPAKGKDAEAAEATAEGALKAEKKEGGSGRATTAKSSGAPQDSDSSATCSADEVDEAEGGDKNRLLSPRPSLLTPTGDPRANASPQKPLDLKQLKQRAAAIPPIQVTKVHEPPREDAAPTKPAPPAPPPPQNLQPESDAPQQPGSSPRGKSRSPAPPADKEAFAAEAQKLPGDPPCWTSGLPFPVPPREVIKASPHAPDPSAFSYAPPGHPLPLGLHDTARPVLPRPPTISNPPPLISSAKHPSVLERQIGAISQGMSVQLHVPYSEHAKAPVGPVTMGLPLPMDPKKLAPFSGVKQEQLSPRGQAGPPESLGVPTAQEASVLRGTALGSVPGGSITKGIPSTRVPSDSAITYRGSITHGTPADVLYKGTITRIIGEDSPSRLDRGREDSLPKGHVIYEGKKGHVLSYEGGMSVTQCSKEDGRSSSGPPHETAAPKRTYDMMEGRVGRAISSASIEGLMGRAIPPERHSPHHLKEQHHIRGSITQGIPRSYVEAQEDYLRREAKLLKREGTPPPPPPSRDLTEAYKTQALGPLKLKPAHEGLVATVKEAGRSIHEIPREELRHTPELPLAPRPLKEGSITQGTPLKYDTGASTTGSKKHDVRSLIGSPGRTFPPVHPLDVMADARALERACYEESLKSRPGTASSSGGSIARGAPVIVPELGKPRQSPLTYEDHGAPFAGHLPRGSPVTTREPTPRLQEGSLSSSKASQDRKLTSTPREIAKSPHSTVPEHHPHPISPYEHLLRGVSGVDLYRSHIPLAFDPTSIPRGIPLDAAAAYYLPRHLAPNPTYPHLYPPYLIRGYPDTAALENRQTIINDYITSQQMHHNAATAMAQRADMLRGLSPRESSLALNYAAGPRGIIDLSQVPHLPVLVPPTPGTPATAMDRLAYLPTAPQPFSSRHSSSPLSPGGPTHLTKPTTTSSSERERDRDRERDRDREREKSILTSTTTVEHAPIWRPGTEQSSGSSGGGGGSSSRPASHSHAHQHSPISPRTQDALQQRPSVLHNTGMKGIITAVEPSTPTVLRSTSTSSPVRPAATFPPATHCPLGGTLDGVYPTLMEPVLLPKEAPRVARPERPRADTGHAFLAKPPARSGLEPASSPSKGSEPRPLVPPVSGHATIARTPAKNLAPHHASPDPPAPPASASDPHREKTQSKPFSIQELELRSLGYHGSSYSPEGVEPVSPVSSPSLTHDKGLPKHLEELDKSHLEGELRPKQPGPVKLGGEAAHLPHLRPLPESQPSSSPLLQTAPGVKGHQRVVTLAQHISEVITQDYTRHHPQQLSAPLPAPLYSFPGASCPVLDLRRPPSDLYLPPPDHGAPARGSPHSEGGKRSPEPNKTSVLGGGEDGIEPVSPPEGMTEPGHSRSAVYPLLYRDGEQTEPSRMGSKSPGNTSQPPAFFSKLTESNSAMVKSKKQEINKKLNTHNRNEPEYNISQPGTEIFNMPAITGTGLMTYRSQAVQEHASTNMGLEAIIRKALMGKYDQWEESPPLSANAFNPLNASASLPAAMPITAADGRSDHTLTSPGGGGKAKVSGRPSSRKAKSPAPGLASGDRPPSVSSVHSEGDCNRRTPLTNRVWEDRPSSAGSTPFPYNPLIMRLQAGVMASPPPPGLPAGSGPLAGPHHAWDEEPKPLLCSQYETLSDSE
Assay: Inhibition of human HDAC-3/NCOR2 using RHKK(Ac) as substrate by fluorescence assay
readout-name: IC50 (nM)
Numbers only, in nM.

So, CC(C)c1cc(-n2nnc(C(=O)NCCCCCCC(=O)NO)c2-c2ccc(CN3CCOCC3)cc2)c(O)cc1O ? Its IC50 was 2790

###

Target: Heat shock protein HSP 90-alpha (Homo sapiens, UniProt P07900)
Assay: Displacement of GM-FITC from full-length recombinant human Hsp90-alpha after 4 hrs by fluorescence polarization assay
readout-name: pIC50
One number for each entry, as −log10 of the molar value.

Below, each entry is followed by its recorded pIC50 result.
CCNC(=O)c1nnn(-c2cc(C(C)C)c(O)cc2O)c1-c1ccc(CN2CCCCC2CCO)cc1 (centres undefined) :: 8.00
CC(C)c1cc(-n2nnc(C(=O)N[C@H](C(=O)O)C(C)C)c2-c2ccc(CN3CCOCC3)cc2)c(O)cc1O :: 6.74

Read the next record carefully.
So, CCNC(=O)c1nnn(-c2cc(C(C)C)c(O)cc2O)c1-c1ccc(CNC2CCN(C)CC2)cc1 ? Its pIC50 was 7.49
